Please go through the items and note down their IC50.
ASSAYED_SYSTEM: NRAS Q61K (Homo sapiens (Human), UniProt P01111+P62937, Q61K)
Sequence (P01111 whole entry Q61K, one chain of several): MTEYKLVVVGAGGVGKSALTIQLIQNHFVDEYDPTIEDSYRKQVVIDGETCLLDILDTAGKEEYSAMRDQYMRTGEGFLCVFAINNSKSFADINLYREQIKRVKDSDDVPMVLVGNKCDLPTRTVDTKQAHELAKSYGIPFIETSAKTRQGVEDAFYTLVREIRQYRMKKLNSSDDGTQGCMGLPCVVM
ASSAY_SUMMARY: Ras-Raf (BRAF RBD) disruption / FRET / MOA assay, NRAS Q61K
Assay type: biochemical
APPLIED_CONDITIONS: NRAS Q61K; Ras-Raf disruption/FRET/MOA assay; read-out: IC50* NRAS Q61K FRET data

Observed IC50, NRAS Q61K (Homo sapiens (Human), UniProt P01111+P62937, Q61K), C=CC(=O)C1CC[C@H](C(=O)N(C)[C@H](C(=O)N[C@H]2Cc3nsc(n3)-c3ccc4c(c3)c(c(-c3cccnc3[C@H](C)OC)n4CC)CC(C)(C)COC(=O)[C@@H]3CCCN(N3)C2=O)C(C)C)C1 (stereo partly shown) : 100 to 1000 nM

Entry C/C=C/C(=O)N1CC2(CCN(C(=O)N(C)[C@H](C(=O)N[C@H]3Cc4nc(cs4)-c4ccc5c(c4)c(c(-c4cccnc4[C@H](C)OC)n5CC)CC(C)(C)COC(=O)[C@@H]4CCCN(N4)C3=O)C(C)C)CC2)C1 (atropisomer, axis not shown) , NRAS Q61K (Homo sapiens (Human), UniProt P01111+P62937, Q61K) data, IC50 value: 10 to 100 nM

Here C=CC(=O)N1CC[C@@]2(CCN2C(=O)N(C)[C@H](C(=O)N[C@H]2Cc3nc(cs3)-c3ccc4c(c3)c(c(-c3cccnc3[C@H](C)OC)n4CC)CC(C)(C)COC(=O)[C@@H]3CCCN(N3)C2=O)C(C)C)C1 (atropisomer, axis not shown) was tested on NRAS Q61K (Homo sapiens (Human), UniProt P01111+P62937, Q61K), and its IC50 came to 10 to 100 nM

Log: NRAS Q61K (Homo sapiens (Human), UniProt P01111+P62937, Q61K), molecule C=CC(=O)N1CC[C@H](C(=O)N(C)[C@H](C(=O)N[C@H]2Cc3cc(O)cc(c3)-c3ccc4c(c3)c(c(-c3csc(N(C)C)n3)n4CC)CC(C)(C)COC(=O)[C@@H]3CCCN(N3)C2=O)C(C)C)C1 , IC50 = > 10000 nM

* * *

ASSAYED_SYSTEM: KRAS Q61H (Homo sapiens (Human), UniProt P01116+P62937, Q61H)
Sequence (P01116-2 other isoform, or with tags, fused parts or gaps Q61H): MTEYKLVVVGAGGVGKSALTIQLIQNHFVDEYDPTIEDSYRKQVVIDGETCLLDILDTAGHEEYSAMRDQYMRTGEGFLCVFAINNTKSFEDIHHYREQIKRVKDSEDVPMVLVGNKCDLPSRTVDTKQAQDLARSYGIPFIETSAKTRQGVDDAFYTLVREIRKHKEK
Sequence (P62937 whole entry): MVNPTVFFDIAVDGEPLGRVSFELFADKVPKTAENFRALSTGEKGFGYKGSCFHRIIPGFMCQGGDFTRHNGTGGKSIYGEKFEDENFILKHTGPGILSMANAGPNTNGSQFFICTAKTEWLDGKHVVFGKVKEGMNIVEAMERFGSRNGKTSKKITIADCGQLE
ASSAY_SUMMARY: Ras-Raf (BRAF RBD) disruption / FRET / MOA assay, KRAS Q61H
Assay type: biochemical
APPLIED_CONDITIONS: Ras-Raf disruption/FRET/MOA assay; class symbols; read-out: KRAS Q61H FRET data IC50
pIC50: −log10 of the molar value.
VALUE_KIND: pIC50

get_value(item= CCn1c(-c2cccnc2[C@H](C)OC)c2c3cc(ccc31)-c1cccc(c1)C[C@H](NC(=O)[C@H](C(C)C)N1CC[C@@]3(CCN(C(=O)C#C[C@H]4COCCN4C)C3)C1=O)C(=O)N1CCC[C@H](N1)C(=O)OCC(C)(C)C2 (atropisomer, axis not shown) [Example A551] , readout=pIC50) returns 6.00 to 7.00

Input C=CC(=O)N1CC[C@H](C(=O)N(C)[C@H](C(=O)N[C@H]2CC3=NN=C(O3)c3ccc4c(c3)c(c(-c3cccnc3[C@H](C)OC)n4CC)CC(C)(C)COC(=O)[C@@H]3CCCN(N3)C2=O)C(C)C)C1 (atropisomer, axis not shown) [Example A447] . Output pIC50: 5.00 to 6.00

C=CC(=O)N1CCC(C(=O)N(C)[C@H](C(=O)N[C@H]2Cc3cc(CF)cc(c3)-c3ccc4c(c3)c(c(-c3cccnc3[C@H](C)OC)n4CC(F)(F)F)CC(C)(C)COC(=O)[C@@H]3CCCN(N3)C2=O)C(C)C)C1 (stereo partly shown) [Example A659] yielded pIC50 of 6.00 to 7.00

Field pIC50 (entry C=CC(=O)N1CCO[C@H]2CN(C(=O)N(C)[C@H](C(=O)N[C@H]3Cc4cccc(n4)-c4ccc5c(c4)c(c(-c4cccnc4[C@H](C)OC)n5CC)CC(C)(C)COC(=O)[C@@H]4CCCN(N4)C3=O)C(C)C)C[C@H]21 (atropisomer, axis not shown) [Example A597] ) reads 6.00 to 7.00
